Reported pIC50 by item:
Target: KRAS Q61H (Homo sapiens (Human), UniProt P01116+P62937, Q61H)
Sequence (P01116-2 other isoform, or with tags, fused parts or gaps Q61H): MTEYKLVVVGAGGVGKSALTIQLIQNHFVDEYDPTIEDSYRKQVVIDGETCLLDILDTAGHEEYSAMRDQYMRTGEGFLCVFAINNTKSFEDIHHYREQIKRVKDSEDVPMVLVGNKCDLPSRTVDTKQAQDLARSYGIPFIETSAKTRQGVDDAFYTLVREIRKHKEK
Sequence (P62937 whole entry): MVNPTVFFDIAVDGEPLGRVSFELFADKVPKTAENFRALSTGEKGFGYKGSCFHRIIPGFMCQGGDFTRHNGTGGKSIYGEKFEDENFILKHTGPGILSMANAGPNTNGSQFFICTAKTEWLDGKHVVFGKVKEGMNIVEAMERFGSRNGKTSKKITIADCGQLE
Assay: Ras-Raf (BRAF RBD) disruption / FRET / MOA assay, KRAS Q61H
Format: biochemical
Conditions: Ras-Raf disruption/FRET/MOA assay; class symbols; read-out: KRAS Q61H FRET data IC50
Protocol: The purpose of this biochemical assay is to measure the ability of test compounds to facilitate ternary complex formation between a nucleotide-loaded Ras isoform and cyclophilin A; the resulting ternary complex disrupts binding to a BRAF^RBD construct, inhibiting Ras signaling through a RAF effector. […]. Compound is present in plate wells as a 10-point 3-fold dilution series starting at a final concentration of 30 μM. […]
pIC50: −log10 of the molar value.

Give KRAS Q61H (Homo sapiens (Human), UniProt P01116+P62937, Q61H) pIC50 for C=CC(=O)N1CC[C@H](C(=O)N(C)[C@H](C(=O)N[C@H]2CC3=NC=C(O3)c3ccc4c(c3)c(c(-c3cccnc3[C@H](C)OC)n4CC)CC(C)(C)COC(=O)[C@@H]3CCCN(N3)C2=O)C(C)C)C1 (atropisomer, axis not shown) [Example A331]
5.00 to 6.00

Kindly review the next compound as well.
Give KRAS Q61H (Homo sapiens (Human), UniProt P01116+P62937, Q61H) pIC50 for CO[C@@H](C)c1ncccc1-c1c2c3cc(ccc3n1CC(F)(F)F)-c1cc(cc(C(F)F)c1)C[C@H](NC(=O)[C@H](C(C)C)N(C)C(=O)[C@H]1CCN(C(=O)C#CC(C)(C)N3CCC3)C1)C(=O)N1CCC[C@H](N1)C(=O)OCC(C)(C)C2 (atropisomer, axis not shown)
5.00 to 6.00

###

Biological target: KRAS G12V (Homo sapiens (Human), UniProt P01116+P62937, G12V)
Sequence (P01116-2 other isoform, or with tags, fused parts or gaps G12V): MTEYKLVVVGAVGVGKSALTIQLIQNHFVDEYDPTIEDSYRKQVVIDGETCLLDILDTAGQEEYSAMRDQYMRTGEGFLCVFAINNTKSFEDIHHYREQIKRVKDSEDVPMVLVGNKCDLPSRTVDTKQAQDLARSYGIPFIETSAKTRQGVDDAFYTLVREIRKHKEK
Sequence (P62937 whole entry): as the sequence (P62937 whole entry) above
Experiment: Ras-Raf (BRAF RBD) disruption / FRET / MOA assay, KRAS G12V
Type: biochemical
Conditions: read-out: IC50* KRAS G12V FRET data
assay.endpoint: IC50

Past entries and their recorded results:
Fill in the blank: the reported IC50 of `CC#CC(=O)N1CC[C@H](C(=O)N(C)[C@H](C(=O)N[C@H]2Cc3nc(cs3)-c3ccc4c(c3)c(c(-c3cccnc3[C@H](C)OC)n4C(C)=O)CC(C)(C)COC(=O)[C@@H]3CCCN(N3)C2=O)C(C)C)C1` is ____.
> 10 µM

Note, next up: CCn1c(-c2cccnc2[C@H](C)OC)c2c3cc(ccc31)N1CCC[C@@H](C[C@H](NC(=O)[C@H](C(C)C)N(C)C(=O)C3(F)CCN(C(=O)C#CC(C)(C)N(C)C)CC3)C(=O)N3CCC[C@H](N3)C(=O)OCC(C)(C)C2)C1 (atropisomer, axis not shown) [Example A616]
1 to 10 µM

Note, next up: C=CC(=O)C1C[C@@H](C(=O)N(C)[C@H](C(=O)N[C@H]2Cc3cc(O)cc(c3)-c3ccc4c(c3)c(c(-c3ccccc3CCOC)n4CC)CC(C)(C)COC(=O)[C@@H]3CCCN(N3)C2=O)C(C)C)[C@@H](OC)N1 (stereo partly drawn)
> 10 µM

Note, next up: CCn1c(-c2cccnc2[C@H](C)OC)c2c3cc(ccc31)-c1csc(n1)C[C@H](NC(=O)[C@H](C(C)C)N(C)C(=O)N1CCC3(CC1)CN(C(=O)/C=C/C(F)F)C3)C(=O)N1CCC[C@H](N1)C(=O)OCC(C)(C)C2 (atropisomer, axis not shown)
0.1 to 1 µM

Note, next up: C=CC(=O)N1CC[C@H](C(=O)N(C)[C@H](C(=O)N[C@H]2Cc3cccc(c3)-c3ccc4c(c3)c(c(-c3cc(C5CCN(C)CC5)cnc3[C@H](C)OC)n4CC)CC(C)(C)COC(=O)[C@@H]3CCCN(N3)C2=O)C(C)C)C1 (atropisomer, axis not shown) [Example A515]
1 to 10 µM

---
Fill in the blank: the reported IC50 of `C=CC(=O)N1CC[C@H](C(=O)N(C)c2ccccc2C(=O)N[C@H]2Cc3cc(O)cc(c3)-c3ccc4c(c3)c(c(-c3cnccc3COC)n4CC)CC(C)(C)COC(=O)[C@@H]3CCCN(N3)C2=O)C1` is ____.
> 10 µM

Note, next up: C=CC(=O)N1CCC2(CC1)OCN([C@H](C(=O)N[C@H]1Cc3cccc(c3)-c3ccc4c(c3)c(c(-c3cccnc3[C@H](C)OC)n4CC)CC(C)(C)COC(=O)[C@@H]3CCCN(N3)C1=O)C(C)C)C2=O (atropisomer, axis not shown)
1 to 10 µM

Note, next up: CCn1c(-c2cccnc2[C@H](C)OC)c2c3cc(ccc31)-c1csc(n1)C[C@H](NC(=O)CN1CC[C@@]3(CCN(C(=O)C#CC(C)(C)N4CCC4)C3)C1)C(=O)N1CCC[C@H](N1)C(=O)OCC(C)(C)C2 (atropisomer, axis not shown)
1 to 10 µM

Note, next up: C=CC(=O)N1CC[C@H](C(=O)N(C)[C@H](C(=O)N[C@H]2Cc3nc(cs3)-c3ccc4c(c3)c(c(-c3cccnc3[C@H](C)OC)n4CC)CC(C)(C)COC(=O)[C@@H]3CCCN(N3)C2=O)C(C)C)C1 (atropisomer, axis not shown)
> 10 µM

Note, next up: `C=CC(=O)N1CC[C@H](C(=O)N(C)[C@H](C(=O)N[C@H]2Cc3cc(O)cc(c3)-c3ccc4c(c3)c(c(-c3ccncc3CN(C)C)n4CC)CC(C)(C)COC(=O)[C@@H]3CCCN(N3)C2=O)C(C)C)C1`
0.1 to 1 µM
